Every entry's value here was drawn from paper PMC5540273.

Collected %Inh values appear next to each entry.
Tested on: WNK1
CONDITION: concentration: 1 μM, replicates: in singlicate; n = 1;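 also: KINOMEscan kinase panel screen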

{"COMPOUND": "O=C(Nc1n[nH]c2nc(-c3cccc(O)c3)ccc12)C1CC1 [SB-711805]", "%Inh, %": 28}
{"COMPOUND": "N#CC1(c2cccc(C(=O)Nc3cccc(Oc4ccc5nc(NC(=O)C6CC6)sc5n4)c3)c2)CC1", "%Inh, %": 6}
{"COMPOUND": "N#Cc1cnc2cc(-c3cnc(CNCCN4CCOCC4)s3)ccc2c1Nc1ccc(Oc2ccccc2)cc1 [GW664114]", "%Inh, %": 74}
{"COMPOUND": "Cc1ccc(NC(=O)c2ccc(Cl)c(Cl)c2)cc1-c1ccc(C(=O)Nc2ccncc2)cc1 [GSK1398460]", "%Inh, %": 0}
{"COMPOUND": "COC(=O)Nc1nc2ccc(Oc3ccc(CC(=O)Nc4cc(C(F)(F)F)ccc4F)cc3)cc2[nH]1 [GW680903]", "%Inh, %": 0}
{"COMPOUND": "Cn1cc(-c2cnc(N)c3c(-c4ccc5c(c4)CCN5C(=O)Cc4ccccc4)csc23)cn1 [GSK2593074]", "%Inh, %": 0}
{"COMPOUND": "O=C1NC(=O)C(c2ccccc2Cl)=C1Nc1cccc(Cl)c1 [SB-342409]", "%Inh, %": 14}
{"COMPOUND": "CC(=O)Nc1cn2nc(Oc3cccc(NC(=O)c4cccc(C(F)(F)F)c4)c3)ccc2n1", "%Inh, %": 0}

----------
Test system: MAP4K5
CONDITION: concentration: 1 μM, replicates: in singlicate; n = 1
ENDPOINT_NAME: %Inh (%)

{"SAMPLE_SMILES": "CN(C)c1ncnc2nc[nH]c12", "UOM": "%", "ENDPOINT_VALUE": 0}
{"SAMPLE_SMILES": "CC(C)c1nc(-c2cccc(NS(=O)(=O)c3c(F)cccc3F)c2)c(-c2ccnc(Nc3ccc(N4CCOCC4)nc3)n2)s1.Cl", "UOM": "%", "ENDPOINT_VALUE": 48}
{"SAMPLE_SMILES": "CN(C)CCOc1ccc(-c2cc(-c3ccc(Cl)c(O)c3)c(-c3ccncc3)[nH]2)cc1.Cl.Cl", "UOM": "%", "ENDPOINT_VALUE": 3}
{"SAMPLE_SMILES": "CCn1c(-c2nonc2N)nc2c(-c3ccccc3)ncc(OCCCN)c21.O=C(O)C(F)(F)F.O=C(O)C(F)(F)F", "UOM": "%", "ENDPOINT_VALUE": 5}
{"SAMPLE_SMILES": "N#Cc1cnc2cc(-c3cnc(CNCCN4CCOCC4)s3)ccc2c1Nc1ccc(Oc2ccccc2)cc1", "UOM": "%", "ENDPOINT_VALUE": 99.6}
{"SAMPLE_SMILES": "CCNC(=O)/C=C/c1n[nH]c2cc(Sc3ccccc3C(=O)NC)ccc12", "UOM": "%", "ENDPOINT_VALUE": 24}
{"SAMPLE_SMILES": "COc1cccc(-c2nc(-c3ccccc3)[nH]c2-c2ccncc2)c1", "UOM": "%", "ENDPOINT_VALUE": 0}

----------
Test system: CDK5
CONDITION: concentration: 1 μM, replicates: in singlicate; n = 1
Collected %Inh values appear next to each entry.

{"COMPOUND": "CN(c1ccc(NC(=O)N2CCN(CCCN3CCOCC3)CC2)cc1)c1ccnc(Nc2ccc(CS(C)(=O)=O)cc2)n1.Cl", "%Inh (%)": 0}
{"COMPOUND": "O=C(Nc1n[nH]c2nc(-c3ccccc3O)ccc12)C1CC1", "%Inh (%)": 0}
{"COMPOUND": "CN(C)CCOc1ccc(-c2cc(-c3ccc(Cl)c(O)c3)c(-c3ccncc3)[nH]2)cc1.Cl.Cl", "%Inh (%)": 0}
{"COMPOUND": "CCn1cnc2c(NCc3ccccc3)ncnc21", "%Inh (%)": 0}
{"COMPOUND": "Nc1cccc(-c2ccc3c(N)n[nH]c3c2)c1", "%Inh (%)": 0}
{"COMPOUND": "NCCC(NC(=O)c1cc(Br)c(-c2ccnc3[nH]ccc23)s1)c1ccccc1.O=C(O)C(F)(F)F.O=C(O)C(F)(F)F (stereo not drawn)", "%Inh (%)": 0}
{"COMPOUND": "Fc1cc(Cl)ccc1Nc1ccnc2cc(-c3ccc(CN4CCSCC4)o3)ccc12", "%Inh (%)": 0}
{"COMPOUND": "CS(=O)(=O)c1cccc(CNc2nc(Nc3ccc4c(c3)CCC(=O)N4)ncc2C(F)(F)F)c1", "%Inh (%)": 22}
{"COMPOUND": "O=C(Nc1n[nH]c2nc(-c3ccccc3)ccc12)C1CC1", "%Inh (%)": 2}
{"COMPOUND": "CN(C)c1ncnc2nc[nH]c12", "%Inh (%)": 0}
{"COMPOUND": "COc1cccc(C2=C(Nc3cccc(O)c3)C(=O)NC2=O)c1", "%Inh (%)": 0}
{"COMPOUND": "Nc1ncc(-c2cn[nH]c2)c2scc(-c3ccc4c(c3)CCN4C(=O)Cc3ccccc3)c12", "%Inh (%)": 0}
{"COMPOUND": "Cl.N#CCc1ccc(Nc2nccc(Nc3ccc(Oc4ccccc4)cc3)n2)cc1", "%Inh (%)": 0}
{"COMPOUND": "Cc1ccc(-c2ccc3occ(-c4ccc(S(C)=O)cc4)c3c2)nn1 (stereo not drawn)", "%Inh (%)": 0}
{"COMPOUND": "COc1ccc(NC(=O)c2ccoc2)cc1-c1ccc(C(=O)NCC2CC2)cc1", "%Inh (%)": 0}
{"COMPOUND": "Cc1ccc(NC(=O)c2ccnc(N3CCCCC3)c2)cc1-c1ccc(C(=O)NCC2CC2)cc1", "%Inh (%)": 8}
{"COMPOUND": "CC(C)c1nc(-c2ccc(F)c(NS(=O)(=O)c3c(F)cccc3F)c2)c(-c2ccnc(Nc3ccc(N4CCOCC4)nc3)n2)s1", "%Inh (%)": 51}
{"COMPOUND": "Cc1cc(-c2c(-c3ccc(F)cc3)ncn2CCCN2CCOCC2)nc(N)n1", "%Inh (%)": 14}
{"COMPOUND": "Cc1ccc(C)c(NC(=O)Nc2ccc(C)c(-c3ccc(C(=O)Nc4ccncc4)cc3)c2)c1", "%Inh (%)": 2}
{"COMPOUND": "COc1cc(Nc2nccc(N3CCC(NS(=O)(=O)c4ccc(NC(C)=O)cc4)CC3)n2)cc(OC)c1OC", "%Inh (%)": 0}
{"COMPOUND": "O=C(O)C(F)(F)F.O=c1[nH]ccc2nc(N[C@@H]3CCNC3)nc(Nc3ccc4c(c3)S(=O)(=O)CC4)c12", "%Inh (%)": 76}
{"COMPOUND": "O=C(Nc1n[nH]c2cc(-c3cccs3)ccc12)C1CC1", "%Inh (%)": 0}
{"COMPOUND": "CC(C)(C)c1ccc(C(=O)Nc2cn3cc(-n4ccnc4)ccc3n2)cc1", "%Inh (%)": 8}
{"COMPOUND": "CCNC(=O)/C=C/c1n[nH]c2cc(Sc3ccccc3C(=O)NC)ccc12", "%Inh (%)": 41}
